Source listed as patent US7365055B2.

Molecular target: μ receptors (Rattus norvegicus)
Construct: homogenates of rat cerebral cortex membrane; from tissue; host or cells: rat cerebral cortex membrane homogenate
Sequence (P33535 whole entry): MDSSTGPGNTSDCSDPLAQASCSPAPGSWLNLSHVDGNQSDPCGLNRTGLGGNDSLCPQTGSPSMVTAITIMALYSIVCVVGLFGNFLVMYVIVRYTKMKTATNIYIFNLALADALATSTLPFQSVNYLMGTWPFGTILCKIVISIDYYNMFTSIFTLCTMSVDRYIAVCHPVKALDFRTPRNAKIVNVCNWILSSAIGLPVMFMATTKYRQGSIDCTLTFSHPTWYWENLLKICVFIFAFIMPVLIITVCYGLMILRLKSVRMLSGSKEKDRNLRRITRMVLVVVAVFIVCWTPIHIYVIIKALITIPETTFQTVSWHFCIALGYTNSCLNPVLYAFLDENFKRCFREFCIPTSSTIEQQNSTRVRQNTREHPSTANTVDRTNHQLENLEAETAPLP
Experiment: affinity to the μ receptors, [3H]DAMGO binding, rat cerebral cortex membrane homogenates
measure: pKi
Please keep in mind that pKi is minus log10 of the molar concentration; only the number is needed.

{"columns": ["molecule", "assay.system", "pKi"],
 "data": [
  ["CCOC(=O)C(CS)NC(=O)C1OC(OC2C=CC3C4Cc5ccc(O)c6c5C3(CCN4C)C2O6)C(O)C(O)C1O (stereo not drawn)", "μ receptors (Rattus norvegicus)", 8.93],
  ["CN1CC[C@]23c4c5ccc(O)c4O[C@H]2[C@@H](O[C@@H]2O[C@H](C(=O)NCCSSCCNC(=O)[C@H]4O[C@@H](O[C@H]6C=CC7[C@H]8Cc9ccc(O)c%10c9[C@@]7(CCN8C)[C@H]6O%10)[C@H](O)[C@@H](O)[C@@H]4O)[C@@H](O)[C@H](O)[C@H]2O)C=CC3[C@H]1C5 (stereo partly drawn)", "μ receptors (Rattus norvegicus)", 9.42]
]}

q: Endpoint output: pKi of COC(=O)C(CS)NC(=O)C1OC(OC2C=CC3C4Cc5ccc(O)c6c5C3(CCN4C)C2O6)C(O)C(O)C1O (stereo not drawn) . Value?
a: 8.98
